# credit: ChEMBL document CHEMBL1146943

measuredOn: 5-hydroxytryptamine receptor 1A (Homo sapiens)
Sequence (P08908 whole entry): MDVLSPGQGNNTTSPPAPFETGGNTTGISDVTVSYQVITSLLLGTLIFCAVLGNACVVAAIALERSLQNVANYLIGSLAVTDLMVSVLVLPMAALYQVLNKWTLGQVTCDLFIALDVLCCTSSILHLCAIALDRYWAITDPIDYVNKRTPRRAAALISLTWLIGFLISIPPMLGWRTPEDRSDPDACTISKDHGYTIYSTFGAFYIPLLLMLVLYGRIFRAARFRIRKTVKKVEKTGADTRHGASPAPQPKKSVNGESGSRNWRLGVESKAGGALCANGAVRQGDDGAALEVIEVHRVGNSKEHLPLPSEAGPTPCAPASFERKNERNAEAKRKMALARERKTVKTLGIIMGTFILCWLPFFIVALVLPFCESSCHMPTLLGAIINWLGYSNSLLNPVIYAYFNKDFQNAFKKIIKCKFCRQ
assayMetric: Ki (nM)
Report the value in nM with no unit label.

Exercise: // fetch 5-hydroxytryptamine receptor 1A (Homo sapiens) Ki for `COc1cccc(N2CCN(CCCCn3ncc(=O)n(C)c3=O)CC2)c1`
Solution: 1.1

* * *

measuredOn: Glutamate receptor ionotropic kainate
protocolDescription: Binding affinity to KAR by radioligand binding assay
pKi: −log10 of the molar value.
assayMetric: pKi

Exercise: Please look up its pKi: `COc1cccc(N2CCN(CCCCn3ncc(=O)n(C)c3=O)CC2)c1`
Solution: < 5.00

* * *

measuredOn: 5-hydroxytryptamine receptor 1B (Homo sapiens)
Sequence (P28222 whole entry): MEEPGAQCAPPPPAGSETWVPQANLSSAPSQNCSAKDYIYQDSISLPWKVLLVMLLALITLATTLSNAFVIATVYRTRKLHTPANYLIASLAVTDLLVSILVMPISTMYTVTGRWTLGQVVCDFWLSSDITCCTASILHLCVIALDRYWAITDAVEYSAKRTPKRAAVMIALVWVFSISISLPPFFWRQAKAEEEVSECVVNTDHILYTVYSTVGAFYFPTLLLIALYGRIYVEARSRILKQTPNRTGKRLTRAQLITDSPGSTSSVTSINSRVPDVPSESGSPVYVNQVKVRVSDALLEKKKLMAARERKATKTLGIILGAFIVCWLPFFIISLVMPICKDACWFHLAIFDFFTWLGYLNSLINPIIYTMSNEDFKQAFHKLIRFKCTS
assayMetric: Ki (µM)
Answer in µM, number only, no unit symbol.

Exercise: What is its Ki for 5-hydroxytryptamine receptor 1B (Homo sapiens)? Entry: `COc1cccc(N2CCN(CCCCn3ncc(=O)n(C)c3=O)CC2)c1`
Solution: 0.228
